Origin of the recorded values: patent US20140087995A1

Target or system: T1, rat amylin receptor (rat calcitonin receptor + rat RAMP 3) (rat, UniProt P32214 25-516; Q9JJ73 23-147)
T1 construct: whole, on cells; Used as membranes prepared from BHK tk'ts 13 cells transiently transfected with rat calcitonin receptor and rat RAMP 3 (Assay VI); also called rAmylin-R; rat amylin 3(a) receptor
T1 sequence (looked up) 1: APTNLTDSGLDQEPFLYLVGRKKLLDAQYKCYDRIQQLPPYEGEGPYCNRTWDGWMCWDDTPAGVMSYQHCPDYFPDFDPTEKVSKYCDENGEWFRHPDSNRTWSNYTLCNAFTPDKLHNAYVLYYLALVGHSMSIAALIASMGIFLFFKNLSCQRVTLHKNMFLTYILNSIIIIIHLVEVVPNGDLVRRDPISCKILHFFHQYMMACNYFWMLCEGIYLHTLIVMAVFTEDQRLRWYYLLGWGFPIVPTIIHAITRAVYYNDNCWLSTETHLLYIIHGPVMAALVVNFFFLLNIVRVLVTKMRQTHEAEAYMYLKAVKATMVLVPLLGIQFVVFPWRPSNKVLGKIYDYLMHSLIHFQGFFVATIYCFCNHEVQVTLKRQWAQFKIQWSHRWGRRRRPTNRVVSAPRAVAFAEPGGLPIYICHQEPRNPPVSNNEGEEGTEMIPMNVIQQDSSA
T1 sequence (looked up) 2: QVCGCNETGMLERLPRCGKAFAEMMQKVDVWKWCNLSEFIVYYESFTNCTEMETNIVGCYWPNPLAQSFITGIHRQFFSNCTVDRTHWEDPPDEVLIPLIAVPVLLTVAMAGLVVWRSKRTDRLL
Method: SPA competition with 125I-rat amylin, membranes of BHK cells with rat CTR + rat RAMP3 (Assay VI)
Procedure: The binding assay was performed using scintillation proximity assay (SPA) beads (RPNQ0001) from PerkinElmer and cell membranes from the Amylin 3(a)/CRE-luc cells (as described in Assay (II)) were used. […] The resulting pellet was resuspended in buffer 2 and protein concentration was measured (BCA protein Assay, Pierce). […] Samples were analyzed on TopCounter™ (Packard). The IC₅₀ was calculated using (one site binding competition analysis) GraphPad Prism5 as a measure of receptor affinity. […]
Numbered stars: 1 amine (or outer) side, 2 acyl side, 3 side chain; on linkers, the order of the positions; unused ones are H or OH. Bridge positions count the residues as written; N and C are the ends. Side chains are listed from the residue outwards. Ends that are not written are not given here. * marks the point of attachment. C20 diacid = O=C(O)CCCCCCCCCCCCCCCCCCC(=O)*; γGlu = O=C(O)[C@H](CCC(=O)[*:2])N[*:1]; AEEA = NCCOCCOCC(=O)O
Measurement name: pIC50
Quick note: pIC50 means taking -log10 of the concentration in moles per liter.

Name the recorded pIC50 for K([AEEA-γGlu-C20 diacid])CNTATCATQRLANFLRHSSPNFGAIPPSTPVGSNTY-NH2 (disulfide 2-7, Analogue of human amylin; also called compound 53) .
10.08
